Species: Rattus norvegicus
Test: Open TG-GATES - Regimen: Daily Repeat
Format: toxicity, organism-based, Sprague-Dawley
Parameters: regimen Daily Repeat, gender Male, age 6 weeks
Settings: in vivo, po, 100 mg/kg, […], tissue Plasma, route gavage, dose level Low, time 7 day

compound	unit.tag	IP
NC(N)=Nc1nc(CSCCC(N)=NS(N)(=O)=O)cs1 [FAMOTIDINE]	mg/dL	7
CCOc1ccc(NC(=O)CC(C)O)cc1 (stereo not given) [BUCETIN]	mg/dL	7.3
COC1=CC(=O)C[C@@H](C)[C@]12Oc1c(Cl)c(OC)cc(OC)c1C2=O [GRISEOFULVIN]	mg/dL	7.1
COc1ccc2[nH]c([S+]([O-])Cc3ncc(C)c(OC)c3C)nc2c1 (stereo not given) [OMEPRAZOLE]	mg/dL	8.3
CCOC(=O)CCC(=O)O[C@H]1[C@H](O[C@@H]2[C@@H](C)[C@H](O[C@H]3C[C@@](C)(OC)[C@@H](O)[C@H](C)O3)[C@@H](C)C(=O)O[C@H](CC)[C@@](C)(O)[C@H](O)[C@@H](C)C(=O)[C@H](C)C[C@@]2(C)O)O[C@H](C)C[C@@H]1N(C)C [ERYTHROMYCIN ETHYLSUCCINATE]	mg/dL	7

Cited source for all entries: ChEMBL document CHEMBL3885861
